# ASSAY SYSTEM: hMC1 (Homo sapiens)
# Sequence (Q01726 whole entry): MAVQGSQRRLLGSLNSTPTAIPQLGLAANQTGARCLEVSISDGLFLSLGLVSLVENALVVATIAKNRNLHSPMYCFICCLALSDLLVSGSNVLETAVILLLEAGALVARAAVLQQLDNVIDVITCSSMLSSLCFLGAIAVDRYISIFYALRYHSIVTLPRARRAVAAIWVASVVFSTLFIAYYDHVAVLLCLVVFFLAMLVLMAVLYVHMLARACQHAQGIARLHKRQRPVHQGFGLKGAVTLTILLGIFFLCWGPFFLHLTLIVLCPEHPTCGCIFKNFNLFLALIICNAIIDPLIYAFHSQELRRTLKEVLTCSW
# TEST DETAILS: Cyclic AMP bioassay (ECL), CHO-K1 cells expressing hMC1
# CONDITION SUMMARY: intracellular cAMP
// returns n unless EC50 is strictly below 20 nM, in which case y

[[record]]
molecule_smiles = "C[C@H]1NC(=O)[C@@H](NC(=O)CN2C(=O)N[C@H](CCCNC(=N)N)C2=O)CSSC[C@@H](C(N)=O)NC(=O)[C@H](Cc2c[nH]c3ccccc23)NC(=O)[C@H](CCCNC(=N)N)NC(=O)[C@@H](Cc2ccccc2)NC(=O)[C@H](Cc2cnc[nH]2)NC1=O"
assay_system = "hMC1 (Homo sapiens)"
group_label = "y"

[[record]]
molecule_smiles = "N=C(N)NCCC[C@@H]1NC(=O)[C@@H](Cc2ccccc2)NC(=O)[C@H](Cc2cnc[nH]2)NC(=O)[C@H](CCC(=O)O)NC(=O)[C@@H](N2C(=O)CNC2=O)CSSC[C@@H](C(N)=O)NC(=O)[C@H](Cc2c[nH]c3ccccc23)NC1=O"
assay_system = "hMC1 (Homo sapiens)"
group_label = "y"

[[record]]
molecule_smiles = "C[C@@H]1C(=O)N[C@@H](Cc2cnc[nH]2)C(=O)N[C@H](Cc2ccccc2)C(=O)N[C@@H](CCCNC(=N)N)C(=O)N[C@@H](Cc2c[nH]c3ccccc23)C(=O)N[C@H](C(N)=O)CNC(=O)CC[C@@H]2NC(=O)N1C2=O"
assay_system = "hMC1 (Homo sapiens)"
group_label = "n"

[[record]]
molecule_smiles = "N=C(N)NCCC[C@@H]1NC(=O)[C@@H](Cc2ccccc2)NC(=O)[C@H](Cc2cnc[nH]2)NC(=O)[C@H](CCC(=O)O)NC(=O)[C@@H](NC(=O)CN2C(=O)N[C@H](CCCNC(=N)N)C2=O)CSSC[C@@H](C(N)=O)NC(=O)[C@H](Cc2c[nH]c3ccccc23)NC1=O"
assay_system = "hMC1 (Homo sapiens)"
group_label = "y"

[[record]]
molecule_smiles = "C[C@H]1NC(=O)[C@@H](NC(=O)CN2C(=O)N[C@H](C)C2=O)CSSC[C@@H](C(N)=O)NC(=O)[C@H](Cc2c[nH]c3ccccc23)NC(=O)[C@H](CCCNC(=N)N)NC(=O)[C@@H](Cc2ccccc2)NC(=O)[C@H](Cc2cnc[nH]2)NC1=O"
assay_system = "hMC1 (Homo sapiens)"
group_label = "y"

[[record]]
molecule_smiles = "N=C(N)NCCC[C@@H]1NC(=O)[C@@H](Cc2ccccc2)NC(=O)[C@H](Cc2cnc[nH]2)NC(=O)[C@H](CCC(=O)O)NC(=O)[C@@H](NC(=O)[C@@H](CCCNC(=N)N)N2C(=O)CNC2=O)CSSC[C@@H](C(N)=O)NC(=O)[C@H](Cc2c[nH]c3ccccc23)NC1=O"
assay_system = "hMC1 (Homo sapiens)"
group_label = "y"

[[record]]
molecule_smiles = "C[C@H]1NC(=O)[C@@H](NC(=O)[C@@H](CCCNC(=N)N)N2C(=O)CNC2=O)CSSC[C@@H](C(N)=O)NC(=O)[C@H](Cc2c[nH]c3ccccc23)NC(=O)[C@H](CCCNC(=N)N)NC(=O)[C@@H](Cc2ccccc2)NC(=O)[C@H](Cc2cnc[nH]2)NC1=O"
assay_system = "hMC1 (Homo sapiens)"
group_label = "y"

[[record]]
molecule_smiles = "C[C@@H]1C(=O)N[C@@H](Cc2cnc[nH]2)C(=O)N[C@H](Cc2ccccc2)C(=O)N[C@@H](CCCNC(=N)N)C(=O)N[C@@H](Cc2c[nH]c3ccccc23)C(=O)N[C@H](C(N)=O)CCCNC(=O)C[C@@H]2NC(=O)N1C2=O"
assay_system = "hMC1 (Homo sapiens)"
group_label = "n"

